Compiled literature IC50, tested on Platelet-derived growth factor receptor beta (Homo sapiens, UniProt P09619).

The examples below pair each entry with its known result.
compound: CCn1cc2ncc(N[C@@H](C)c3cccc(NC(=O)Cc4cccc(C(F)(F)F)n4)c3)nc2n1
assayTarget: Platelet-derived growth factor receptor beta (Homo sapiens, UniProt P09619)
IC50: 300 to 1000 nM
//
compound: CCn1cc2ncc(N[C@@H](C)c3cccc(NC(=O)Nc4cnc(N(C)C)c(C)c4)c3)nc2n1
assayTarget: Platelet-derived growth factor receptor beta (Homo sapiens, UniProt P09619)
IC50: < 300 nM
//
compound: CCn1cc2ncc(N[C@@H](C)c3cccc(NC(=O)c4cnc(OC)c(Cl)c4)c3)nc2n1
assayTarget: Platelet-derived growth factor receptor beta (Homo sapiens, UniProt P09619)
IC50: < 300 nM
//
compound: CCN1CCN(c2ccc(Nc3ncc(C)c(Nc4ccc5cn[nH]c5c4)n3)c(OC)c2)CC1
assayTarget: Platelet-derived growth factor receptor beta (Homo sapiens, UniProt P09619)
IC50: 40 nM

INPUT: Quick check: IC50 on Platelet-derived growth factor receptor beta (Homo sapiens, UniProt P09619), item `CCn1cc2ncc(N[C@@H](C)c3cccc(NC(=O)Cc4cc(C)ccn4)c3)nc2n1` ?
OUTPUT: ≥ 1000 nM

INPUT: Quick check: IC50 on Platelet-derived growth factor receptor beta (Homo sapiens, UniProt P09619), item Cc1ccc(C(=O)N[C@H]2CCCC[C@@H]2O)cc1NCc1ccc(NC(=O)C2CCOC2)nc1 (stereo partly shown) ?
OUTPUT: 30 nM

INPUT: Quick check: IC50 on Platelet-derived growth factor receptor beta (Homo sapiens, UniProt P09619), item `Cc1cncc(C(=O)Nc2cccc([C@H](C)Nc3cnc4cnn(CC5CC5)c4n3)c2)c1` ?
OUTPUT: < 300 nM

INPUT: Quick check: IC50 on Platelet-derived growth factor receptor beta (Homo sapiens, UniProt P09619), item `O=C(Nc1cccc(Oc2ccnc(-c3nnco3)c2)c1)c1cccc(Oc2ccccc2)c1` ?
OUTPUT: ≤ 10000 nM

====

Compiled literature IC50, tested on Platelet-derived growth factor receptor beta (Homo sapiens).

The examples below pair each entry with its known result.
compoundStructure: CCn1cc2ncc(N[C@@H](C)c3cccc(NC(=O)c4ccc(CN5CC[C@H](O)C5)c(Cl)c4)c3)nc2n1
valueType: IC50
result: < 300 nM
//
compoundStructure: COc1ccc(C(C)C)cc1-c1ccc2c(c1)NC(=O)/C2=C\c1[nH]c(C)c(C(=O)NCCN2CCCC2)c1C
valueType: IC50
result: 19200 nM
//
compoundStructure: Cc1cc(C(=O)O)[nH]c1/C=C1\C(=O)Nc2ccc(Cl)cc21
valueType: IC50
result: > 100000 nM
//
compoundStructure: Cc1ccc(C(=O)N[C@H]2CCCC[C@@H]2O)cc1N[C@@H](C)c1cncc(-c2cccnc2)c1
valueType: IC50
result: 180 nM
//
compoundStructure: C[C@H](Nc1cnc2cn[nH]c2n1)c1cccc(NC(=O)c2cncc(C3COC3)c2)c1
valueType: IC50
result: < 300 nM

INPUT: Quick check: IC50 on Platelet-derived growth factor receptor beta (Homo sapiens), item `C[C@H](Nc1cnc2cnn(C)c2n1)c1cccc(NC(=O)c2cc(C(C)(C)C)n(C)n2)c1` ?
OUTPUT: < 300 nM

INPUT: Quick check: IC50 on Platelet-derived growth factor receptor beta (Homo sapiens), item `Cc1ccc(C(=O)N[C@H]2CCCC[C@@H]2O)cc1NCc1cncc(-c2ccc(N)cc2)c1` ?
OUTPUT: 13 nM

INPUT: Quick check: IC50 on Platelet-derived growth factor receptor beta (Homo sapiens), item `Cn1nnc(-c2cc(Oc3cccc(NC(=O)Nc4ccc(Cl)c(C(F)(F)F)c4)c3)ncn2)n1` ?
OUTPUT: ≤ 10000 nM
